Values compiled from patent US20210047372A1.

# STUDY TARGET: T1, complement component 4 (C4) (UniProt P0C0L4 20-675; P0C0L4 680-1446; P0C0L4 1454-1744, limits assumed)
# T1 construct: Natural C4 is a three-chain protein (alpha, beta, gamma) made from one precursor; Biotinylated for ELISA, amine-coupled to the chip for SPR; also called b-C4
# T1 sequence (P0C0L4 20-675 limits assumed, chain 1 of 3): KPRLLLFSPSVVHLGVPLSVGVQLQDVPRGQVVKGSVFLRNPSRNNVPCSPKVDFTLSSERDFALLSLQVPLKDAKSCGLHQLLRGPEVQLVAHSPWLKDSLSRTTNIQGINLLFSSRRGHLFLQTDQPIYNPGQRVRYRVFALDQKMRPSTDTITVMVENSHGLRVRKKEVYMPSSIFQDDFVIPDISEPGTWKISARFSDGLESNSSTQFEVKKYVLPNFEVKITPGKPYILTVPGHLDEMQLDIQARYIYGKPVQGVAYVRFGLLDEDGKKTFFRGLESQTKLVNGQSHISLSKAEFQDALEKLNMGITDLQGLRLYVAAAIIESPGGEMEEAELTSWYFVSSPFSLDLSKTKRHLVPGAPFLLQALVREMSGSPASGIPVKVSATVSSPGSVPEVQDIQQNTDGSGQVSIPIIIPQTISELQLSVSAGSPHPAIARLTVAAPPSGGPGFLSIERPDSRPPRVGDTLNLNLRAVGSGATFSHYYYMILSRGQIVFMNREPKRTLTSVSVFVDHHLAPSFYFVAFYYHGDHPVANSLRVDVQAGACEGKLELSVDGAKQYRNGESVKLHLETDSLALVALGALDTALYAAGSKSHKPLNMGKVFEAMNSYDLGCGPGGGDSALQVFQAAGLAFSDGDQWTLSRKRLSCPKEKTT
# T1 sequence (P0C0L4 680-1446 limits assumed, chain 2 of 3): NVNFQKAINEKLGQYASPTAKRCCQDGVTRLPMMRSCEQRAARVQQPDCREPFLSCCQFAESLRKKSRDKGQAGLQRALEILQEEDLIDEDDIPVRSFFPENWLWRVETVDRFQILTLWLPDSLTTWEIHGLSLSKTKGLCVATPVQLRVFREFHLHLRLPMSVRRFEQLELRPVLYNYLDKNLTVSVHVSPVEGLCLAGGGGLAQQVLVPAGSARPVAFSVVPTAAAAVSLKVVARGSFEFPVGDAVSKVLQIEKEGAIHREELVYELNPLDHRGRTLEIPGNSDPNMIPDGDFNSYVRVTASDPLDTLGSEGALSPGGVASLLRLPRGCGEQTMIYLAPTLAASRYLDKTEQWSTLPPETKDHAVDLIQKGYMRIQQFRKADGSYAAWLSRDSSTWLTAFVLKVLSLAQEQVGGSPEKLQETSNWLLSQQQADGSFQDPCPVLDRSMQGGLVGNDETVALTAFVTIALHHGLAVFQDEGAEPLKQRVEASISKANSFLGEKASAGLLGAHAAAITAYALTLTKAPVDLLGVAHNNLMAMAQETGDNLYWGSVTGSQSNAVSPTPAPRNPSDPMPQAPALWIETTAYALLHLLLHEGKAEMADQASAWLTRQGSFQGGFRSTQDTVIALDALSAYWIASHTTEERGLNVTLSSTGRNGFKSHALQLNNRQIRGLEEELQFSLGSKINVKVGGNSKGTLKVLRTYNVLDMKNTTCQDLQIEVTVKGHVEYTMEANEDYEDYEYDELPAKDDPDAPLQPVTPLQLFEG
# T1 sequence (P0C0L4 1454-1744 limits assumed, chain 3 of 3): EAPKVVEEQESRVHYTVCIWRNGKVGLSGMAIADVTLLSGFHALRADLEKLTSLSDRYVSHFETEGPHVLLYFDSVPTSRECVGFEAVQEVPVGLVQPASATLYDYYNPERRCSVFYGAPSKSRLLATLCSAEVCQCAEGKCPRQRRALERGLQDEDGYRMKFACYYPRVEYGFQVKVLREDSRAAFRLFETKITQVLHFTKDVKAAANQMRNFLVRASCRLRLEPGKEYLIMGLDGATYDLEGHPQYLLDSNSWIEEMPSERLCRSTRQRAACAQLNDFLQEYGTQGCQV
# PROTOCOL NOTES: SPR, Biacore T200; target immobilized on CM5, His6-tagged Y variant injected; 1:1 Langmuir
Form field: kon (one value per entry).

BINDER: Y02309 (designed binder, From library Ylib002Naive.I) MGSSHHHHHHGSSLAEAKEAAIAELDSKGVGADLIKKIQKAESVEGVQFWKQEILATLPA
REPORTED VALUE: 36000 M⁻¹ s⁻¹

BINDER: Y00792 (designed binder, From library Ylib002Naive.I) MGSSHHHHHHGSSLAEAKEAAIAELDSKGVGADLIKKIQQASSVEGVQFWKQEILAQLPA
REPORTED VALUE: 27000 M⁻¹ s⁻¹

BINDER: Y02358 (designed binder, From library Ylib002Naive.I) MGSSHHHHHHGSSLAEAKEAAIAELDSKGVGADDIKLIQDAPSVEGVQEIKQFILAQLPA
REPORTED VALUE: 90000 M⁻¹ s⁻¹

BINDER: Y02337 (designed binder, From library Ylib002Naive.I) MGSSHHHHHHGSSLAEAKEAAIAELDSKGVGAAEIKWIQHASTVEGVQGRKQQILAELPA
REPORTED VALUE: 420000 M⁻¹ s⁻¹

BINDER: Y02330 (designed binder, From library Ylib002Naive.I) MGSSHHHHHHGSSLAEAKEAAIAELDSKGVGAELIKKIQHAESVEGVQFWKQEILAYLPA
REPORTED VALUE: 96000 M⁻¹ s⁻¹

Proceeding to the next binder to report its kon.
// kon lookup, key: Y02303 (designed binder, From library Ylib002Naive.I) MGSSHHHHHHGSSLAEAKEAAIAELDSKGVGAEEIKWIQNAWSVEGVQIMKQQILAELPA
96000 M⁻¹ s⁻¹
